assay: P. aeruginosa biofilm formation inhibitors, primary screen, strain PAO1, LB-PBS medium, absorbance 600 nm (AID 1176); note: test concentration not given here; conditions: P. aeruginosa PAO1 growth/biofilm, A600, 12 h; higher = more signal
The entries below come with measured z-score values attached.
observable: z-score

[[record]]
compound = "CC1(C)C(=O)C(c2ccccc2)=C2CN3C(=O)N(CCc4ccccc4)C(=O)C3(Cc3ccc(C(F)(F)F)cc3)C=C21 (stereo unspecified)"
observable = "z-score"
meas_value = 0.0539

[[record]]
compound = "COC(=O)[C@@]1(Cc2ccc(F)cc2)[C@H]2c3cc(C(=O)N4CCCC4)n(C)c3C[C@H]2CN1C(=O)c1ccccc1"
observable = "z-score"
meas_value = 0.523

[[record]]
compound = "CN1C(=O)[C@@]2(Cc3ccccc3)N=C(c3ccc(OCCCO)cc3)O[C@H]2c2ccccc21"
observable = "z-score"
meas_value = 1.14

[[record]]
compound = "C#C[C@@H](CC)O[Si](C#CCCCC#N)(C(C)C)C(C)C"
observable = "z-score"
meas_value = 0.113

[[record]]
compound = "C[C@]1(C(=O)NCCN2CCOCC2)c2ccccc2C(=O)N(Cc2cc(F)cc(C(F)(F)F)c2)[C@H]1c1ccc(CO)cc1"
observable = "z-score"
meas_value = 0.664

[[record]]
compound = "COc1ccc([Si](C)(C)[C@@H]2[C@@H](CCn3cc([C@H](O)c4ccccc4)nn3)O[C@]3(C(=O)N(Cc4cccc(N5C(=O)c6cccc7cccc5c67)c4)c4ccccc43)[C@H]2C)cc1"
observable = "z-score"
meas_value = 0.106


The reported measurements were obtained from PubChem BioAssay.
